# test target: Cam1 (fission yeast calmodulin), amino-terminally acetylated (S. pombe, UniProt P05933 1-150, amino-terminal (Nt) acetylation)
# Sequence (P05933 whole entry): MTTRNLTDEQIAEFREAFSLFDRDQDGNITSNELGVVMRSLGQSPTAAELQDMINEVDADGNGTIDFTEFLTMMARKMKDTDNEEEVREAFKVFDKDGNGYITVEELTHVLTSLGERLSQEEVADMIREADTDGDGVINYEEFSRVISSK
# assay details: FRET; second site (Kd2)
property name: Kd (nM)
Give just the numeric value; nM need not be written.

Please give measured Kd of the following entry: CyPet-DTMATRIQRAWRSYVRRRDEAAACIQKLWNRNKVNMELERVRNEGTK-YPet (domain or fragment, not fully specified) [CyPet-Myo1^IQ12-S742D-YPet FRET reporter protein]
540
